Molecular target: T1, scHLA-B27-mmH (engineered HLA-B*27 ectodomain in-line fusion protein) (human (HLA-B*2705, beta-2 …))
T1 construct: also called soluble HLA-B*27 fusion protein
Assay: SPR (Biacore), mAb captured, 25 C, HBST pH 7.4
This section presents binders with their documented t1/2 values.
Response body: numeric value in min, unit text excluded.

H4H2542P (antibody, V domains shown) VH: EVQLVESGGGLVQPGRSLRLSCAASGFTFDDYAMHWVRQGPGKGLEWVSGISWNGRTMDHADSVKGRFTISRDNAKNSLYLQMNSLRNDDTGVYFCAKEGIPVAGTYFHFYGMDVWGQGTTVTVSS VL: EIVMTQSPATLSVSPGERVTLSCRASQSIGNYLAWYQQKPGQAPRLLIYGTSTRATGIPARFSGSGSGTEFTLTFSSLQSEDFAVYYCQQYNHWPLTFGGGTKVEIK    2

Moving on to another binder below.
Exercise: I have this binder here, H4H2718N (antibody, V domains shown) VH: EVQLVESGGGLVQPGRSLRLSCAASGFTFDEYAMHWVRQVPGKGLEWVSGISRNSGTIGYVDSVLGRFTISRDNAKNSLYLQMNSLRPEDTALYYCAKDKGWLLGMDVWGQGTTVTVSS VL: DIQMTQSPSSLSASVGDRVTITCRASQAIRNDLGWYQQKPGKAPKRLIYAASSLQSGVPSRFSGSGSGTEFALTISSLQPEDFATYYCLQYNSYLYTFGQGTKLEIK , and I need its recorded t1/2.
Key: 4
